Listing of recorded GI50 by entry.
- Test system: HCC 2998
- EXPERIMENT_SUMMARY: NCI tumour cell line growth inhibition, 48 h
The source made the active and inactive calls. No stated cut-off is given here; in the data, active = GI50 up to about 1.1 µM and inactive = higher.
PROPERTY_MEASURED: GI50

molecule="C=C1CCC(OC(C)=O)C2(C)C(OC(C)=O)CC3OC3(C)C2C(OC(C)=O)C2C(C)C(=O)OC2C1Cl (stereo unspecified)" property_measured=GI50 measured="> 100 µM (inactive)"
molecule="COC(=O)C1=C(C(=O)OC)C(C(=O)c2ccc(Br)cc2)N2N=C(c3ccc(Cl)cc3)C=CC12 (stereo unspecified)" property_measured=GI50 measured="> 100 µM (inactive)"
molecule=CN(C)C(=S)/N=c1\ss/c(=N\S(=O)(=O)c2ccccc2)n1C property_measured=GI50 measured="> 100 µM (inactive)"
molecule=C[n+]1c(-c2ccccc2)cc2/c(=C\c3ccccc3)c3ccccc3n21 property_measured=GI50 measured="3.84 µM (inactive)"
molecule="O=C(O)c1ccccc1CC(Cc1ccc2c(c1)CCC2)C(=O)O (stereo unspecified)" property_measured=GI50 measured="> 100 µM (inactive)"
molecule=Cc1cc(S(=O)(=O)Nc2nnc3ccccn23)c(S)cc1Cl property_measured=GI50 measured="> 100 µM (inactive)"
molecule=COC(=O)[C@@H]1[C@H](O)CCC2=C(CC(=O)c3ccoc3)[C@H](C)CC[C@]21C property_measured=GI50 measured="> 50 µM (inactive)"
molecule="CC1(C)C=C(/C=C2/N(S(=O)(=O)C(F)(F)F)C(/C=C3/N(S(=O)(=O)C(F)(F)F)C(C)(C#N)CC3(C)C)=CC2(C)C)N=C1/C=C1/CC(C)(C)C(=O)N1 (stereo unspecified)" property_measured=GI50 measured="35.2 µM (inactive)"
molecule="Nc1ncnc2c1ncn2C1OC(CSCC(F)(F)F)C(O)C1O (stereo unspecified)" property_measured=GI50 measured="> 100 µM (inactive)"
molecule="CC(N)Cc1ccc(C(=O)Cl)cc1 (stereo unspecified)" property_measured=GI50 measured="> 100 µM (inactive)"
molecule=O=C1OC(c2ccccc2)=N/C1=C\c1ccc([N+](=O)[O-])cc1 property_measured=GI50 measured="> 100 µM (inactive)"
molecule=C[C@@H]1OC(=O)/C(=C\N(C)C)[C@H]2CC(=O)N(CCc3cn(S(=O)(=O)C(F)(F)F)c4ccccc34)C[C@H]12 property_measured=GI50 measured="> 100 µM (inactive)"
molecule=NC1=Nc2cc(Cl)ccc2Sc2nc3ccccc3n21 property_measured=GI50 measured="> 100 µM (inactive)"
molecule=CCOC(=O)NC property_measured=GI50 measured="> 100 µM (inactive)"
molecule=O=c1c(C(c2ccc(Cl)cc2)c2c(O)c3ccccc3n(-c3ccccc3)c2=O)c(O)c2ccccc2n1-c1ccccc1 property_measured=GI50 measured="23.3 µM (inactive)"
molecule="CN(C(=O)C12C3C4C1C1C2C3C41C(=O)N(C)C(C)(C)C)C(C)(C)C (stereo unspecified)" property_measured=GI50 measured="> 50 µM (inactive)"
molecule="NC(=O)C1CCCN1C(=O)C(Cc1c[nH]cn1)NC(=O)C1CCCC1 (stereo unspecified)" property_measured=GI50 measured="> 100 µM (inactive)"
molecule=CCCCCOC(=O)c1cc2cc(CCl)ccc2oc1=O property_measured=GI50 measured="14.9 µM (inactive)"
molecule=CCOC(=O)Cc1nn2c(=O)cc(C)nc2s1 property_measured=GI50 measured="> 100 µM (inactive)"
molecule=C=CCOCn1cc(F)c(=O)[nH]c1=O property_measured=GI50 measured="> 100 µM (inactive)"
molecule=C/C(=N/NC(=S)N1CCN(C(=S)N/N=C(/C)c2ccccn2)CC1)c1ccccn1 property_measured=GI50 measured="22.5 µM (inactive)"
